biological target: cat T1R1/T1R3 receptor (Felis catus, UniProt E3UMS2); test: cell-based; settings: EC50 (mM), + Alanine (20 mM), Table 15
Each entry below carries its reported EC50.

Recorded results for 2 compounds are shown here.
| Compound | EC50 |
| --- | --- |
| Nc1ncnc2c1nc(Cl)n2[C@@H]1O[C@H](COP(=O)(O)O)[C@@H](O)[C@H]1O [8-Chloroadenosine-5′-O-monophosphate] | 0.8 mM |
| O=c1ccn(C2OC(COP(=O)(O)N3CCOCC3)C(O)C2O)c(=O)[nH]1 (stereo not drawn) | > 3 mM |

Bench note: what EC50 did `O=C(Nc1ncnc2c1ncn2[C@@H]1O[C@H](COP(=O)(O)O)[C@@H](O)[C@H]1O)c1ccccc1` show?
> 1 mM
